From: patent US20220185900A1

t½ listing for selected binders.
Target: T1, hRET.mFc (human)
T1 construct: also called dimeric human RET
Assay: SPR Biacore T200, mAb capture, 25 C
Procedure: Binding affinities and kinetic constants of human anti-RET antibodies were determined by surface plasmon resonance (Biacore T200) at […] (Tables 2-3). […] Binding equilibrium dissociation constants (KD) and dissociative half-lives (t_{1/2}) were calculated from the kinetic rate constants as: KD [M]=kd/kₐ; and t_{1/2}(min)=(ln2/(60*kd). Calculations were performed using BiacoreT200 evaluation software v1.0.
QUANTITY NAME: t½ (h)

BINDER: H4H8045P (antibody, human IgG4, V domains shown, human IgG4 Fc (H4H prefix)) VH: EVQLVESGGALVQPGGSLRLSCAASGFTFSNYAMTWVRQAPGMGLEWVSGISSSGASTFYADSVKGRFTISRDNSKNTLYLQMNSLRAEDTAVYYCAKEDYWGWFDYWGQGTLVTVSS VL: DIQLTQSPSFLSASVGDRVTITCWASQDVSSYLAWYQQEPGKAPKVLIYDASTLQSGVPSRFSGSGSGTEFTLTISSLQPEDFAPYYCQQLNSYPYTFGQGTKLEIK
REPORTED: 2.22
--
BINDER: H4H8080P (antibody, human IgG4, V domains shown, human IgG4 Fc (H4H prefix)) VH: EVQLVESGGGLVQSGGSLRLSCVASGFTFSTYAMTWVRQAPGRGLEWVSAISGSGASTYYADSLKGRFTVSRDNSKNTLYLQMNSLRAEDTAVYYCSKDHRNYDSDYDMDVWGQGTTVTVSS VL: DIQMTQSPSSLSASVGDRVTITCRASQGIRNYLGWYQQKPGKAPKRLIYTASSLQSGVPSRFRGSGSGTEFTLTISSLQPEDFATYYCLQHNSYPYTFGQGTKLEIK
REPORTED: 0.8
